system: human acute lymphocytic leukemia (Reh) cells; assay: MTS cell viability assay in Reh cells; format: cell-based; settings: 48 h
assay.readout: IC50

1. COc1cc2c3cc1Oc1c(OC)c(OC)cc4c1[C@@H](Cc1ccc(OCCCN5C(=O)c6ccccc6C5=O)c(c1)Oc1ccc(cc1)C[C@@H]3N(C)CC2)N(C)CC4 [BA #3] ... 2900 nM

---

system: DU145 prostate cancer cell line; test: MTS cell viability assay in DU145 cells; format: cell-based; settings: DU145, 48 h
pIC50: −log10 of the molar value.
assay.readout: pIC50

1. COc1cc2c3cc1Oc1c(OC)c(OC)cc4c1[C@@H](Cc1ccc(OCCCNC(=O)c5cncs5)c(c1)Oc1ccc(cc1)C[C@@H]3N(C)CC2)N(C)CC4 [BA #1] ... 5.03
2. COc1cc2c3cc1Oc1c(OC)c(OC)cc4c1[C@@H](Cc1ccc(OCCCNC(=O)c5cncs5)c(c1)Oc1ccc(cc1)C[C@@H]3N(C)CC2)N(C)CC4 [BA #7] ... 5.16
3. COc1cc2c3cc1Oc1c(OC)c(OC)cc4c1[C@@H](Cc1ccc(OCCCNC(=O)c5cncs5)c(c1)Oc1ccc(cc1)C[C@@H]3N(C)CC2)N(C)CC4 [BA #13] ... 4.87
4. COc1cc2c3cc1Oc1c(OC)c(OC)cc4c1[C@@H](Cc1ccc(OCCCNC(=O)c5cncs5)c(c1)Oc1ccc(cc1)C[C@@H]3N(C)CC2)N(C)CC4 [BA #2] ... 4.82
5. COc1cc2c3cc1Oc1c(OC)c(OC)cc4c1[C@@H](Cc1ccc(OCCCNC(=O)c5cncs5)c(c1)Oc1ccc(cc1)C[C@@H]3N(C)CC2)N(C)CC4 [BA #12] ... 5.25
6. COc1cc2c3cc1Oc1c(OC)c(OC)cc4c1[C@@H](Cc1ccc(OCCCNC(=O)c5cncs5)c(c1)Oc1ccc(cc1)C[C@@H]3N(C)CC2)N(C)CC4 [BA #4] ... 4.81
7. COc1cc2c3cc1Oc1c(OC)c(OC)cc4c1[C@@H](Cc1ccc(OCCCNC(=O)c5cncs5)c(c1)Oc1ccc(cc1)C[C@@H]3N(C)CC2)N(C)CC4 [BA #8] ... 5.18
8. COc1cc2c3cc1Oc1c(OC)c(OC)cc4c1[C@@H](Cc1ccc(OCCCNC(=O)c5cncs5)c(c1)Oc1ccc(cc1)C[C@@H]3N(C)CC2)N(C)CC4 [BA #9] ... 5.11
9. COc1cc2c3cc1Oc1c(OC)c(OC)cc4c1[C@@H](Cc1ccc(OCCCNC(=O)c5cncs5)c(c1)Oc1ccc(cc1)C[C@@H]3N(C)CC2)N(C)CC4 [BA #5] ... 5.10
10. COc1cc2c3cc1Oc1c(OC)c(OC)cc4c1[C@@H](Cc1ccc(OCCCNC(=O)c5cncs5)c(c1)Oc1ccc(cc1)C[C@@H]3N(C)CC2)N(C)CC4 [BA #11] ... 4.91
11. COc1cc2c3cc1Oc1c(OC)c(OC)cc4c1[C@@H](Cc1ccc(OCCCNC(=O)c5cncs5)c(c1)Oc1ccc(cc1)C[C@@H]3N(C)CC2)N(C)CC4 [BA #6] ... 5.46
12. COc1cc2c3cc1Oc1c(OC)c(OC)cc4c1[C@@H](Cc1ccc(OCCCNC(=O)c5cncs5)c(c1)Oc1ccc(cc1)C[C@@H]3N(C)CC2)N(C)CC4 [BA #10] ... 5.43

---

Tested on: melanoma A375 cells
Test: MTS cell viability assay in A375 cells
Type: cell-based
Conditions: Homo sapiens, A-375, A375, 48 h
Protocol: Each type of cells (5,000 or 10,000 cells/well) were treated with different concentration (0.1 μM to 20 μM in 1% DMSO of berbamine and BA #3 respectively for 48 h. Then, MTS assay for cell viability were carried out to determine the IC50 values. Four samples were tested for each test compound at each concentration for each type of cells, and the averaged data were shown in Table 4 and FIGS. 12-13.
pIC50: −log10 of the molar value.
assay.readout: pIC50

1) COc1cc2c3cc1Oc1c(OC)c(OC)cc4c1[C@@H](Cc1ccc(OCCCN5C(=O)c6ccccc6C5=O)c(c1)Oc1ccc(cc1)C[C@@H]3N(C)CC2)N(C)CC4 ... 5.43

---

Biological target: non-activated recombinant Jak2 protein (autophosphorylation at Tyr1007/1008) (Homo sapiens, UniProt O60674)
Sequence (O60674 whole entry): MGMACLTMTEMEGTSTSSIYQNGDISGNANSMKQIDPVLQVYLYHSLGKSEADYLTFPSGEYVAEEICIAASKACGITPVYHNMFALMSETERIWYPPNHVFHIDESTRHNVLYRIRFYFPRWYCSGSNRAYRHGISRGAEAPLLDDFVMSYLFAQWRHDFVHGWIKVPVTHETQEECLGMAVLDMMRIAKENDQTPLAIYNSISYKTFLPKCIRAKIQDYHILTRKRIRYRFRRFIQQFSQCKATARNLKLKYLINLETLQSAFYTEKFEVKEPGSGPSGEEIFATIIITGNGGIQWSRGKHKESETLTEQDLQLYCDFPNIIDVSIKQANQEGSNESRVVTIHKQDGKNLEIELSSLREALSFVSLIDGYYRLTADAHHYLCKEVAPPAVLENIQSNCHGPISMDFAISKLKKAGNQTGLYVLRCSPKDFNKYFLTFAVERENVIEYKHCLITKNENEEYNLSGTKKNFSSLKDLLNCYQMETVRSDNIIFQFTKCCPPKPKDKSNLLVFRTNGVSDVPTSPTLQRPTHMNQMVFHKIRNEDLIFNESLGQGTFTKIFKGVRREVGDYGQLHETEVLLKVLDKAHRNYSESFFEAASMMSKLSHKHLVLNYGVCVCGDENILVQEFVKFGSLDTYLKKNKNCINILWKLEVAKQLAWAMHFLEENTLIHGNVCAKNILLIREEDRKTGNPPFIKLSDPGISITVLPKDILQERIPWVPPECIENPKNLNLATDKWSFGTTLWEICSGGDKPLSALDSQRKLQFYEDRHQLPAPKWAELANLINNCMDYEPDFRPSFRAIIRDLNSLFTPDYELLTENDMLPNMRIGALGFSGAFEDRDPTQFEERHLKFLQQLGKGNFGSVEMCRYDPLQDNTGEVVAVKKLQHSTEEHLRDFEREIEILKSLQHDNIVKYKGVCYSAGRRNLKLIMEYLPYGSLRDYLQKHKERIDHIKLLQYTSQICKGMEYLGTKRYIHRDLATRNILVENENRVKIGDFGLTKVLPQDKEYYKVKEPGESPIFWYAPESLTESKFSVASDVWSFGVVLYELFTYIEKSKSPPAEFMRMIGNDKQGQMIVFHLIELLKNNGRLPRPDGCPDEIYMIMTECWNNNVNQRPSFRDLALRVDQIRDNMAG
Assay: In vitro Jak2 autophosphorylation kinase assay
Settings: non-activated recombinant Jak2 and ATP, no substrate, densitometry; read-out: IC50 for inhibition of autophosphorylation kinase activity
Description: FIG. 19. In vitro Jak2 autophosphorylation kinase assay of BA #3. A) Autophosphorylation of Jak2 at Tyr1007/1008 was required for its catalytic activity, non-activated recombinant Jak2 protein was mixed with ATP in the absence or presence of BA #3; B) inhibitory activity of Jak2 autophosphorylation based on the densitometry of FIG. 19(A). […]
assay.readout: IC50 (nM)

1) COc1cc2c3cc1Oc1c(OC)c(OC)cc4c1[C@@H](Cc1ccc(OCCCN5C(=O)c6ccccc6C5=O)c(c1)Oc1ccc(cc1)C[C@@H]3N(C)CC2)N(C)CC4 ... 690

---

Entries annotated with measured IC50
System: Imatinib-resistant leukemia (K562/ADR) cells
Assay: Cell viability in imatinib-resistant leukemia cells
Format: cell-based
Settings: 48 hours
Method: Imatinib-resistant leukemia (K562/ADR) cells (5,000 cells/well) were treated with different concentrations (0.6-40 μM in DMSO) of BA #1, BA #3 and BA #4 respectively for 48 hours and cell viability was measured.
assay.readout: IC50 (µM)

1) COc1cc2c3cc1Oc1c(OC)c(OC)cc4c1[C@@H](Cc1ccc(OCCCNC(=O)c5cncs5)c(c1)Oc1ccc(cc1)C[C@@H]3N(C)CC2)N(C)CC4 [BA #1] ... 6.4
2) COc1cc2c3cc1Oc1c(OC)c(OC)cc4c1[C@@H](Cc1ccc(OCCCNC(=O)c5cncs5)c(c1)Oc1ccc(cc1)C[C@@H]3N(C)CC2)N(C)CC4 [BA #4] ... 3

These measurements were taken from patent US9233976B2.
